Form field: hGRN mRNA FC (one value per entry).
Test system: GRN mRNA
Assay: GRN mRNA qPCR in SK-N-AS cells transfected with ASOs
Format: cell-based, human
Details: Table 11; SK-N-AS, 120 nM, 48 hours; normalized to CO-1589
Oligonucleotides are written 5' to 3', each unit as a sugar letter and its base; * is a phosphorothioate linkage, no mark a phosphodiester; rarer units and linkages stand in square brackets, end groups in braces. Plain capitals give the bases only. e = 2'-O-(2-methoxyethyl) (MOE); [5mC] = 5-methylcytosine
# unit: FC | format: bare number

## Task Given the substance CO-6431: ASO designed to target an intragenic enhancer RNA (eRNA) (eA*e[5mC]*eG*eG*eA*e[5mC]*e[5mC]*eT*e[5mC]*e[5mC]*eT*e[5mC]*eA*e[5mC]*eT*eA*eA*eG*e[5mC]*eT) , write its reported hGRN mRNA FC.
## Result 0.8

## Task Given the substance CO-6453: ASO designed to target an intragenic enhancer RNA (eRNA) (eG*eA*eA*eA*eA*eA*eG*eT*eT*eT*e[5mC]*e[5mC]*eT*e[5mC]*e[5mC]*eA*eT*e[5mC]*e[5mC]*eT) , write its reported hGRN mRNA FC.
## Result 0.9

## Task Given the substance CO-6446: ASO designed to target an intragenic enhancer RNA (eRNA) (eT*eG*e[5mC]*eT*eG*eT*eG*eA*eG*e[5mC]*eT*eG*e[5mC]*e[5mC]*e[5mC]*eA*eG*eT*eG*eG) , write its reported hGRN mRNA FC.
## Result 1.1

---
## Task Given the substance CO-6430: ASO designed to target an intragenic enhancer RNA (eRNA) (eT*eG*e[5mC]*eG*e[5mC]*eA*e[5mC]*eA*e[5mC]*eA*eG*eG*eT*eA*e[5mC]*e[5mC]*eA*eG*eA*eG) , write its reported hGRN mRNA FC.
## Result 1.0
